Measured Ki (UniProtKB P35563)
Sequence (P35563 24-483): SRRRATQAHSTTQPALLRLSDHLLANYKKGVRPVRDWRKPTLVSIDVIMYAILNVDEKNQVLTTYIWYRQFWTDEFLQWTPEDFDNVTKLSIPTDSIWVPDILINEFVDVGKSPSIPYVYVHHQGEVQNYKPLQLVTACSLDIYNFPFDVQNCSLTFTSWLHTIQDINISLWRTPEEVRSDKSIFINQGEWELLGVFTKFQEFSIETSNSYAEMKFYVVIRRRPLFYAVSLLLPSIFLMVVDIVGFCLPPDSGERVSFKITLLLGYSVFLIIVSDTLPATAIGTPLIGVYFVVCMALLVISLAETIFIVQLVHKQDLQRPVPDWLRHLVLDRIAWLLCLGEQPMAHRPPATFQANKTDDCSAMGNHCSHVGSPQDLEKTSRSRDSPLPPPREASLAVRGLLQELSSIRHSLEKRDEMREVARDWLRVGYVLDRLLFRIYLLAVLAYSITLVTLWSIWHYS

# molecule, Ki / nM
records = [
    ("O=C1c2c(ccc3ccccc23)CN1[C@H]1CN2CCC1CC2 [Compound 8]", 1.8),
    ("CN1[C@@H]2CC[C@H]1C[C@@H](N1Cc3c(O)nc4ccccc4c3C1=O)C2 [Compound 5]", 0.9),
    ("O=C1c2c(ccc3ccccc23)CN1C1CN2CCC1CC2 (racemic) [Compound 6]", 0.7),
    ("CN1[C@@H]2CC[C@H]1C[C@@H](N1Cc3ccc4ccccc4c3C1=O)C2 [Compound 1]", 1),
    ("O=C1c2c(cnc3ccccc23)CN1C1CN2CCC1CC2 (racemic) [Compound 9]", 1.6),
    ("CN1[C@@H]2CC[C@H]1C[C@@H](N1Cc3nc4ccccc4cc3C1=O)C2 [Compound 11, reference compound]", 87),
    ("CN1[C@@H]2CC[C@H]1C[C@@H](N1Cc3cnc4ccccc4c3C1=O)C2 [Compound 2]", 1.3),
    ("CCCOc1nc2ccccc2c2c1CN(C1CC3CCC(C1)N3C)C2=O (centres unmarked) [Compound 4]", 0.7),
    ("O=C1c2c(ccc3ccccc23)CN1[C@@H]1CN2CCC1CC2 [Compound 7]", 0.3),
    ("CN1[C@@H]2CC[C@H]1C[C@@H](N1Cc3c(Cl)nc4ccccc4c3C1=O)C2 [Compound 3]", 2.6),
    ("CN1[C@@H]2CC[C@H]1C[C@H](N1Cc3ccc4ccccc4c3C1=O)C2 [Compound 10, reference compound]", 85.5),
]

###

experimental system: 5-HT2A Subtype (Rattus norvegicus, UniProt P14842)
Construct: from tissue; host or cells: rat prefrontal cortex
Sequence (P14842 whole entry): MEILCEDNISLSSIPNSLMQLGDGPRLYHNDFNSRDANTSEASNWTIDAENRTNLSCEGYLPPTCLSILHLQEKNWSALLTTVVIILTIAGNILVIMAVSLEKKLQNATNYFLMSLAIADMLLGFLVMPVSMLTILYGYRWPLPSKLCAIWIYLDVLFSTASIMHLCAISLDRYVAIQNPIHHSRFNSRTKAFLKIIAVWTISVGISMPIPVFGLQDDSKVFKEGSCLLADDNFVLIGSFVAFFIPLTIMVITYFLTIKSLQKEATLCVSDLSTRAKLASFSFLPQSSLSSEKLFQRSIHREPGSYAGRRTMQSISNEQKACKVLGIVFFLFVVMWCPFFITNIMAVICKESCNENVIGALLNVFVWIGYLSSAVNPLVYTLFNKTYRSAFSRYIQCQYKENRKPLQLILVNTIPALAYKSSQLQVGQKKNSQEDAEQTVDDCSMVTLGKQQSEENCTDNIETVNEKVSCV
procedure summary: Affinity for the 5HT2 receptors, [3H]-ketanserine binding
details: rat prefrontal cortex; 20 min, 37° C.; IN (10^−6M) where no Ki is given
outcome measure: Ki ± SE, 5-HT2A Subtype ([3R]-ketanserine)

# compound, value
rows = [
    ("CN1[C@@H]2CC[C@H]1C[C@@H](N1Cc3c(Cl)nc4ccccc4c3C1=O)C2", "IN (10^−6M)"),
    ("CN1[C@@H]2CC[C@H]1C[C@@H](N1Cc3c(O)nc4ccccc4c3C1=O)C2", "IN (10^−6M)"),
    ("CCCOc1nc2ccccc2c2c1CN(C1CC3CCC(C1)N3C)C2=O (centres unmarked)", "IN (10^−6M)"),
    ("CN1[C@@H]2CC[C@H]1C[C@@H](N1Cc3cnc4ccccc4c3C1=O)C2", "IN (10^−6M)"),
    ("O=C1c2c(cnc3ccccc23)CN1C1CN2CCC1CC2 (racemic)", "IN (10^−6M)"),
]

###

experimental system: UniProt P19327
Sequence (P19327 1-422): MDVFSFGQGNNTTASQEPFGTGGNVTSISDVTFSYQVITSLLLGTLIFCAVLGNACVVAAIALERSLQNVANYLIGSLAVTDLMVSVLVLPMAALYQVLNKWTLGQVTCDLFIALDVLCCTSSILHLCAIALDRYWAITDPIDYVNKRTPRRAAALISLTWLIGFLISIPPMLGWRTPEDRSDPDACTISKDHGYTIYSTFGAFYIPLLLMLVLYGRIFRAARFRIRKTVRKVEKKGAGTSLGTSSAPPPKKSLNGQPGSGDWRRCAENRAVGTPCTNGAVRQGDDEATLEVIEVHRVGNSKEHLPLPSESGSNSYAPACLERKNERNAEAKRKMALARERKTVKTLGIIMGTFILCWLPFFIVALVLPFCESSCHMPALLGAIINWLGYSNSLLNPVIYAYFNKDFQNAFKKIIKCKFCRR
pKi: −log10 of the molar value.

# compound, pKi
measured = [
    ("CN1[C@@H]2CC[C@H]1C[C@@H](N1Cc3ccc4ccccc4c3C1=O)C2 [Compound 1]", 4.51),
]

###

Here, each record is paired with measured melting point data.
outcome measure: melting point

# molecule, outcome measure, value
data = [
    ("O=C1c2c(ccc3ccccc23)CN1C1CN2CCC1CC2 (racemic) [Compound 6]", "melting point", "153 to 154 °C"),
    ("CN1[C@@H]2CC[C@H]1C[C@@H](N1Cc3cnc4ccccc4c3C1=O)C2 [Compound 2]", "melting point", "153 to 154 °C"),
    ("CN1[C@@H]2CC[C@H]1C[C@@H](N1Cc3c(Cl)nc4ccccc4c3C1=O)C2 [Compound 3]", "melting point", "169 to 171 °C"),
    ("O=C1c2c(ccc3ccccc23)CN1[C@H]1CN2CCC1CC2 [Compound 8]", "melting point", "155 to 157 °C"),
    ("CCCOc1nc2ccccc2c2c1CN(C1CC3CCC(C1)N3C)C2=O (stereo not shown) [Compound 4]", "melting point", "170 to 171 °C"),
    ("O=C1c2c(ccc3ccccc23)CN1[C@@H]1CN2CCC1CC2 [Compound 7]", "melting point", "152 to 154 °C"),
    ("CN1[C@@H]2CC[C@H]1C[C@@H](N1Cc3c(O)nc4ccccc4c3C1=O)C2 [Compound 5]", "melting point", "245 to 246 °C"),
]

###

experimental system: 5-HT2A Subtype (Rattus norvegicus, UniProt P14842)
Construct: from tissue; host or cells: rat prefrontal cortex
procedure summary: Affinity for the 5HT2 receptors, [3H]-ketanserine binding
details: read-out: Ki ± SE, 5-HT2A Subtype ([3R]-ketanserine)
outcome measure: Ki (µM)

# molecule, outcome measure, value
rows = [
    ("O=C1c2c(ccc3ccccc23)CN1C1CN2CCC1CC2 (racemic) [Compound 6]", "Ki", 26.5),
    ("CN1[C@@H]2CC[C@H]1C[C@@H](N1Cc3ccc4ccccc4c3C1=O)C2 [Compound 1]", "Ki", 21.1),
]

###

Here, each record is paired with measured Ki data.
experimental system: serotonin uptake site (Rattus norvegicus, UniProt P31652)
Construct: from tissue; host or cells: entire rat brain
Sequence (P31652 whole entry): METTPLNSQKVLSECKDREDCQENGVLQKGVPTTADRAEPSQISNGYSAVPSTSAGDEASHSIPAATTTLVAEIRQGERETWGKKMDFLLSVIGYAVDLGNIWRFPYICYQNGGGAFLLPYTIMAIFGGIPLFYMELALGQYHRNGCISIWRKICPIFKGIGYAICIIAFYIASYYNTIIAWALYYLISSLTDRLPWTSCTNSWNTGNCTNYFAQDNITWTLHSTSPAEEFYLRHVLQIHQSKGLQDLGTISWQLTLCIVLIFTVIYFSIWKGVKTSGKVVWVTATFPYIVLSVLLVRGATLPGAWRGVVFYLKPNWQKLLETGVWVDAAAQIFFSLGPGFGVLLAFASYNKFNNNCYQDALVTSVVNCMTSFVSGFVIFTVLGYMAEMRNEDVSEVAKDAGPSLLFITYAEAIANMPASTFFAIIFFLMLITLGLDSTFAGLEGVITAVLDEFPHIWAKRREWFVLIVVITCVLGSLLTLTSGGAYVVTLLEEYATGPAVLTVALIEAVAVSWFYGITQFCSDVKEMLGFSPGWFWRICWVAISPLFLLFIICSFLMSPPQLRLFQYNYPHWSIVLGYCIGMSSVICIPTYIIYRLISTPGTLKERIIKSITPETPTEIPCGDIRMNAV
procedure summary: Affinity for the serotonin uptake site, [3H]-paroxetine binding
details: entire rat brain; 60 min, 25° C.; read-out: Ki ± SE, 5-HT Uptake ([3H]-paroxetin)

# compound, Ki / nM
rows = [
    ("CN1[C@@H]2CC[C@H]1C[C@@H](N1Cc3c(Cl)nc4ccccc4c3C1=O)C2 [Compound 3]", 175),
    ("O=C1c2c(cnc3ccccc23)CN1C1CN2CCC1CC2 (racemic) [Compound 9]", 124),
    ("CN1[C@@H]2CC[C@H]1C[C@@H](N1Cc3ccc4ccccc4c3C1=O)C2 [Compound 1]", 632),
    ("CN1[C@@H]2CC[C@H]1C[C@@H](N1Cc3c(O)nc4ccccc4c3C1=O)C2 [Compound 5]", 485),
    ("c1ccc2nc(N3CCNCC3)ccc2c1 [quipazine, reference compound]", 31.3),
    ("CCCOc1nc2ccccc2c2c1CN(C1CC3CCC(C1)N3C)C2=O (centres unmarked) [Compound 4]", 108),
    ("O=[N+]([O-])c1ccc2nc(N3CCNCC3)ccc2c1 [6-NO2-quipazine, reference compound]", 0.12),
    ("CN1[C@@H]2CC[C@H]1C[C@@H](N1Cc3cnc4ccccc4c3C1=O)C2 [Compound 2]", 503),
]

###

experimental system: serotonin uptake site (Rattus norvegicus)
Construct: from tissue; host or cells: entire rat brain
procedure summary: Affinity for the serotonin uptake site, [3H]-paroxetine binding
pKi: −log10 of the molar value.
outcome measure: pKi

# compound, outcome measure, value
rows = [
    ("O=C1c2c(ccc3ccccc23)CN1C1CN2CCC1CC2 (racemic)", "pKi", 7.02),
]
